Molecular target: 5-hydroxytryptamine receptor 4 (Cavia porcellus, UniProt O70528)
Sequence (O70528 whole entry): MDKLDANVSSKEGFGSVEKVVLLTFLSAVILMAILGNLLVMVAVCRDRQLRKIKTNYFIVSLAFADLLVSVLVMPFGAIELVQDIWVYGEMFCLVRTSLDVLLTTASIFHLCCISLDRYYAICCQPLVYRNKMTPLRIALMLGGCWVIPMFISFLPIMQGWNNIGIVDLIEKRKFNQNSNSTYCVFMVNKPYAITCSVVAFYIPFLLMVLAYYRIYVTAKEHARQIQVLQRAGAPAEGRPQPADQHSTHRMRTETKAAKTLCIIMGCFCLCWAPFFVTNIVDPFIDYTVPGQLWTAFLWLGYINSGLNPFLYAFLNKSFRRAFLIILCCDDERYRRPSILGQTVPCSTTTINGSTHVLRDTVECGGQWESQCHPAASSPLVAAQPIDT
Assay: Displacement of [3H]-GR113808 from guinea pig 5HT4 receptor by Grossman's method
pKi: −log10 of the molar value.
Please enter Y where pKi is greater than or equal to 7, and N where it is lower.

Example entries begin here.
> print(dat)
                            compound.smiles  class.name
1  c1ccc(CCN2CCC(COc3nc4ccsc4n4cccc34)CC2)cc1           Y
2  Cc1csc2nc(OCC3CCN(CC4CCCCC4)CC3)c3cccn3c12           Y
3  Cc1csc2nc(OCC3CCN(Cc4ccccc4)CC3)c3cccn3c12           Y
4  c1ccc(CN2CCC(COc3nc4ccsc4n4cccc34)CC2)cc1           Y
5  c1cc2c(OCC3CCN(Cc4ccncc4)CC3)nc3ccsc3n2c1           N

// query Determine whether this molecule has pKi no lower than 7: `CCCN1CCC(COc2nc3scc(C)c3n3cccc23)CC1`
// result Y

// query Determine whether this molecule has pKi no lower than 7: `c1cc2c(OCC3CCN(CC4CCCC4)CC3)nc3ccsc3n2c1`
// result Y
